target: TRPM4 (Homo sapiens); construct: expressed in transfected cells; host or cells: TrexHEK-293 (tetracycline-inducible HEK-293); experiment: Whole-cell patch-clamp of TRPM4 currents in TrexHEK-293 cells overexpressing TRPM4, buffered [Ca2+]i; assay type: cell-based; details: flag-TRPM4-TrexHEK293; current at +80 mV, 600 s; read-out: KD, dose-response fit of TRPM4 activation, secondary phase
QUANTITY_MEASURED: Kd (nM)
All answers are understood in nM, so give the number only.

Param item = [Ca+2] [Ca^2+] ; retrieve measured Kd.
1300

* * *

target: TRPM4 (Homo sapiens, UniProt Q8TD43); construct: expressed in transfected cells; host or cells: TrexHEK-293 (tetracycline-inducible HEK-293); experiment: Whole-cell patch-clamp of TRPM4 currents in TrexHEK-293 cells overexpressing TRPM4, buffered [Ca2+]i; assay type: cell-based; details: flag-TRPM4-TrexHEK293; current at +80 mV, peak of first phase; read-out: KD, dose-response fit of TRPM4 activation, first phase
Sequence (Q8TD43 whole entry): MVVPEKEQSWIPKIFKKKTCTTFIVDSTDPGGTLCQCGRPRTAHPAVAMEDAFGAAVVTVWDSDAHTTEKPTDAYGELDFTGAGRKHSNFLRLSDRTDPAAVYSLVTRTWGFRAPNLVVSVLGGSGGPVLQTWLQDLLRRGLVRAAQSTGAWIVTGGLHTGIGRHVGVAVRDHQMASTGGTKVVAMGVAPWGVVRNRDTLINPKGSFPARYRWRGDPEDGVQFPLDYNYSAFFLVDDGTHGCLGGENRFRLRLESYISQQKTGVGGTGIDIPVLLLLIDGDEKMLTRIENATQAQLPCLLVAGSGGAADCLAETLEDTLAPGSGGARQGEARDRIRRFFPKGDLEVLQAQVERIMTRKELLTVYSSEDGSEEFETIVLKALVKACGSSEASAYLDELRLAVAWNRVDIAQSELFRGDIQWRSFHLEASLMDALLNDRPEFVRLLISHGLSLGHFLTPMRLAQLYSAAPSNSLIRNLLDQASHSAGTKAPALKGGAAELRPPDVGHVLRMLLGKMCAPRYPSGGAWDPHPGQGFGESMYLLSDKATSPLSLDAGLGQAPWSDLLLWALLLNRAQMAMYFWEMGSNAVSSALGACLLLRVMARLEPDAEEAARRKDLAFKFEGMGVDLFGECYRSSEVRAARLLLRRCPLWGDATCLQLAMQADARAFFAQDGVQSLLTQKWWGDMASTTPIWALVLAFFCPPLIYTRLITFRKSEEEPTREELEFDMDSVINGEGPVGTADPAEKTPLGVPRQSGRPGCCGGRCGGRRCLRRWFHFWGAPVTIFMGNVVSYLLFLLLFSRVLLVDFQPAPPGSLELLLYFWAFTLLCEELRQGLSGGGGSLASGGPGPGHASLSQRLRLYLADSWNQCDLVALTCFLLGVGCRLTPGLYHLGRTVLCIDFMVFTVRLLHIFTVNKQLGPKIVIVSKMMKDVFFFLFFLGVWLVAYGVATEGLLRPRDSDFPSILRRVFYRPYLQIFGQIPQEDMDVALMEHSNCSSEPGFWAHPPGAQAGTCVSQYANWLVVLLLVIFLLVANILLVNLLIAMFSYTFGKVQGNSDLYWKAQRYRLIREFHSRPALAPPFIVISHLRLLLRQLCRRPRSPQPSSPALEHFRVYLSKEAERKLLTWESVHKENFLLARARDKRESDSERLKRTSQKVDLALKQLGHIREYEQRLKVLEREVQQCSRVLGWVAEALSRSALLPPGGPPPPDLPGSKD
QUANTITY_MEASURED: pKd
Reminder that pKd is minus the log10 of a molar concentration.

Sample `[Ca+2]` — what was its pKd?
5.92

* * *

biological target: TRPM4 (Rattus norvegicus, UniProt Q9ESQ5); experiment: Whole-cell patch-clamp of TRPM4 currents in INS-1 cells perfused with buffered [Ca2+]i; type: cell-based; set-up: The channel was detected in INS-1 and RINm5F cell lines; endogenous in cells; host or cells: INS-1 (rat insulinoma beta-cell line); conditions: current amplitude at +80 mV, 80 s, read-out: KD, dose-response fit of TRPM4 activation, first phase
Sequence (Q9ESQ5 whole entry, the tested form may be a part): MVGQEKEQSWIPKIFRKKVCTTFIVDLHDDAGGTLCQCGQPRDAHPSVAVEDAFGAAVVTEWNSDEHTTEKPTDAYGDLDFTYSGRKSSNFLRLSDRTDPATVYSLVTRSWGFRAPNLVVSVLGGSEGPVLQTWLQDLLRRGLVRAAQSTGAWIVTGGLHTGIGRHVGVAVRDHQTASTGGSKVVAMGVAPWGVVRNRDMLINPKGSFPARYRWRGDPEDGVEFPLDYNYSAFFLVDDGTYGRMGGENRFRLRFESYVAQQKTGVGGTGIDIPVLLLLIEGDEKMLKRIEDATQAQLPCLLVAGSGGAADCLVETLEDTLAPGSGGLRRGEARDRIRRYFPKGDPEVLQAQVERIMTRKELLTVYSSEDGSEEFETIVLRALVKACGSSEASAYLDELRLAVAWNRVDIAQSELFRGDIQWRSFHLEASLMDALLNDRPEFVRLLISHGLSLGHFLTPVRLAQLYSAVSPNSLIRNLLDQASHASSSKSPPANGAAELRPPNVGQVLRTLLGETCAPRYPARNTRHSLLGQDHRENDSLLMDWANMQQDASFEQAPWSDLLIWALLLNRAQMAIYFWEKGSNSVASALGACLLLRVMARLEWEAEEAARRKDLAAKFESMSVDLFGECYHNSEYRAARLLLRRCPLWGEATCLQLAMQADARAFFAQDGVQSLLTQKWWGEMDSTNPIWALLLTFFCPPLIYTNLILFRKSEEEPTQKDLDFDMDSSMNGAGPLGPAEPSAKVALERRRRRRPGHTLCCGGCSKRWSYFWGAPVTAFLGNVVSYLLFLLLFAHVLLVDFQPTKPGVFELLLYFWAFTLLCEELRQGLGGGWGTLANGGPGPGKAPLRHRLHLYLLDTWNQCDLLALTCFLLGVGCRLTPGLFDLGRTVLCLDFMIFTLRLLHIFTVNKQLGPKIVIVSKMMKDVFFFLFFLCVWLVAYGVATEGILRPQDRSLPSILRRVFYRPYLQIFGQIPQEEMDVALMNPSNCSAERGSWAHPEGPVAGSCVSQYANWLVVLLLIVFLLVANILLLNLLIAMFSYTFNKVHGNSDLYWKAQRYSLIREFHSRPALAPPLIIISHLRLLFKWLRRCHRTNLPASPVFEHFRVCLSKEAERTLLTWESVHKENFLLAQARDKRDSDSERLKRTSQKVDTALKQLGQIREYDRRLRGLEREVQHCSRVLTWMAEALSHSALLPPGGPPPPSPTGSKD
QUANTITY_MEASURED: Kd (µM)
Please respond with the number in µM and leave the unit unwritten.

Any idea what its Kd is? The molecule is `[Ca+2]`
1.7
